Quick reference: Plant response rating, Ryegrass, Italian of the listed items.
Test system: ryegrass, Italian
assay-protocol: Test A pre-/postemergence herbicide test
Format: in vivo, Lolium multiflorum
condition-description: Postemergence, 125 g ai/ha; 0 to 100 scale, 0 is no effect, 100 is complete control

molecule | Plant response rating, Ryegrass, Italian
O=C1NCC(c2ccc(OC(F)(F)C(F)F)cc2)C1C(=O)Nc1ccc(F)c(F)c1F (racemic) | 0
O=C1NCC(c2ccc(C(F)(F)F)cc2)C1C(=O)Nc1ccccc1Cl (stereo not drawn) | 20
CCc1cccc(C2CNC(=O)C2C(=O)Nc2ccc(F)c(F)c2F)c1 (racemic) | 20
CC(C)(C)c1cccc(C2CNC(=O)C2C(=O)Nc2ccccc2C(F)(F)F)c1 (racemic) | 0
CC(C)(C)c1cccc(C2CNC(=O)C2C(=O)Nc2cccc(F)c2F)c1 (racemic) | 0
O=C1NCC(c2ccc(OC(F)(F)C(F)F)cc2)C1C(=O)Nc1cccc(F)c1F (racemic) | 0
CCc1cccc(C2CNC(=O)C2C(=O)Nc2cccc(F)c2F)c1 (racemic) | 20
O=C1NCC(c2cccc(C3CC3)c2)C1C(=O)Nc1cccc(F)c1F (racemic) | 20
Cc1ccccc1NC(=O)C1C(=O)NCC1c1cccc(OC(F)F)c1 (stereo not drawn) | 0
COc1ccc(C2CNC(=O)C2C(=O)Nc2cccc(F)c2F)cc1C(F)(F)F (stereo not drawn) | 20
O=C1NCC(c2ccc(-c3ccccc3C(F)(F)F)cc2)C1C(=O)Nc1cccc(F)c1F (stereo not drawn) | 0
O=C1NCC(c2cccc(OC(F)F)c2)C1C(=O)Nc1ccccc1F (stereo not drawn) | 0
O=C1NCC(c2cc(F)cc(F)c2)C1C(=O)Nc1cccc(F)c1F (racemic) | 30
O=C1NCC(c2cccc(C3CC3)c2)C1C(=O)Nc1ccccc1F (racemic) | 0
Cc1cc(NC(=O)C2C(=O)NCC2c2cccc(C(F)(F)F)c2)ccc1F (racemic) | 0
